// provenance: patent US20260174875A1

target: human GLP-1 receptor (hGLP-1R) (Homo sapiens, UniProt P43220); construct: expressed in transfected cells; test: GLP-1 receptor assay, method A (CRE-luciferase reporter, BHK cells); type: cell-based; settings: hGLP-1R Potency, 1% HSA, EC50, method A, in the presence of 1% HSA
Sequence (P43220 24-463): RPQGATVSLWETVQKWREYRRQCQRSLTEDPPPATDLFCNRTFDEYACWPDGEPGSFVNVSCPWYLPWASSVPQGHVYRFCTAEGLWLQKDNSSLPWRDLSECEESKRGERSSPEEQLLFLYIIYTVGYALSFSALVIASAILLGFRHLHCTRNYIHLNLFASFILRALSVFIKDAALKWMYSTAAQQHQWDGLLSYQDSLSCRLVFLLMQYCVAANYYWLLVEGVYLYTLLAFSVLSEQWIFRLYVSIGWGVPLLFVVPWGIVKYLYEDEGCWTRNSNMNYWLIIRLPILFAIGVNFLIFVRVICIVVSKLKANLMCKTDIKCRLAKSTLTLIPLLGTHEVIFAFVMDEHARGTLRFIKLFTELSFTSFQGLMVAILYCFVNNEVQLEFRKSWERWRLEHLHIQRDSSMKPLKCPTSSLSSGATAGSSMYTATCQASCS
Numbered stars: 1 amine (or outer) side, 2 acyl side, 3 side chain; on linkers, the order of the positions; unused ones are H or OH. Square brackets hold non-standard residues; d marks the D form. Side chains are listed from the residue outwards. * marks the point of attachment. C18 diacid = O=C(O)CCCCCCCCCCCCCCCCC(=O)*; γGlu = O=C(O)[C@H](CCC(=O)[*:2])N[*:1]; AEEA = NCCOCCOCC(=O)O; Aib = CC(C)(N)C(=O)O
observable: EC50 (nM)

substance	scale.unit	measured.result
Y[Aib]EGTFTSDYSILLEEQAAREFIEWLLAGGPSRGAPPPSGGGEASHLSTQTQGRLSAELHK([AEEA-AEEA-γGlu-C18 diacid])LATLPRTETGSGSP-NH2 [Compound 72]	nM	0.0417
H[Aib]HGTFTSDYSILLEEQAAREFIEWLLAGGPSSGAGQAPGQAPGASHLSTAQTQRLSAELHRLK([AEEA-AEEA-γGlu-C18 diacid])TLPRTETGSGSP-NH2 [Compound 91]	nM	0.0174
Y[Aib]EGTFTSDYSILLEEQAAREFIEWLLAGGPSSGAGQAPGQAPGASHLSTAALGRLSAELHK([AEEA-AEEA-γGlu-C18 diacid])LATLPRTETGSGSP-NH2 [Compound 53]	nM	0.0792
Y[Aib]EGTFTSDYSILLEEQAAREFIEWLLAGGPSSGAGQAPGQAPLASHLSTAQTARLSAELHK([AEEA-AEEA-γGlu-C18 diacid])LATLPRTETGSGSP-NH2 [Compound 98]	nM	0.0431
Y[Aib]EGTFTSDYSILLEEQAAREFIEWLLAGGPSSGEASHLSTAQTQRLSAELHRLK([AEEA-AEEA-γGlu-C18 diacid])TLPRTETGSGSP-NH2 [Compound 80]	nM	0.111

====

target: human amylin receptor (hAMYR3) (Homo sapiens, UniProt O60896+P30988); construct: host or cells: BHK cells (Hollex-1 line expressing hCTR(a) and CRE-Luc), further transfected with human RAMP3; test: Amylin receptor assay, method A (CRE-luciferase reporter, BHK cells); format: cell-based; conditions: hAMYR3 Potency, no HSA, EC50, method A, absence of HSA
Sequence (P30988 25-474): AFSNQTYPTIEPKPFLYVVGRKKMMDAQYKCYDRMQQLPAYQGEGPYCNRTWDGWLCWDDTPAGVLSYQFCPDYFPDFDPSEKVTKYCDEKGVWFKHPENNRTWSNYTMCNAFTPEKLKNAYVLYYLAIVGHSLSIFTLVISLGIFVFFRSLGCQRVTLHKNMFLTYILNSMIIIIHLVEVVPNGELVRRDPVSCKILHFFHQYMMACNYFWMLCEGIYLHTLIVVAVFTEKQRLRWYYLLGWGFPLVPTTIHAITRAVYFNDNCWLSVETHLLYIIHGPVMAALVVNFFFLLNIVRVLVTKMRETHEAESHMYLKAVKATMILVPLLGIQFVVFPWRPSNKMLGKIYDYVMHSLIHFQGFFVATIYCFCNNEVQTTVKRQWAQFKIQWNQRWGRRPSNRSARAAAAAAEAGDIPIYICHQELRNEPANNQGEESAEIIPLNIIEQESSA
Sequence (O60896 24-148): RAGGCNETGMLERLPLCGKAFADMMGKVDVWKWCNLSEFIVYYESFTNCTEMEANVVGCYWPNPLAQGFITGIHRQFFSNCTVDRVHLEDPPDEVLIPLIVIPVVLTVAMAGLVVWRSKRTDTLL
pEC50: −log10 of the molar value. Numbered stars: 1 amine (or outer) side, 2 acyl side, 3 side chain; on linkers, the order of the positions; unused ones are H or OH. Square brackets hold non-standard residues; d marks the D form. Side chains are listed from the residue outwards. * marks the point of attachment. C18 diacid = O=C(O)CCCCCCCCCCCCCCCCC(=O)*; C16 diacid = O=C(O)CCCCCCCCCCCCCCC(=O)*; γGlu = O=C(O)[C@H](CCC(=O)[*:2])N[*:1]; AEEA = NCCOCCOCC(=O)O; Aib = CC(C)(N)C(=O)O

substance	pEC50
H[Aib]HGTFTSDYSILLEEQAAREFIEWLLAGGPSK([γGlu-C18 diacid])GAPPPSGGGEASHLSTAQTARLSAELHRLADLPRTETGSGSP-NH2 [Compound 112]	11.44
Y[Aib]EGTFTSDYSILLEEQAAREFIEWLLAGGPSSGAGQAPGQAPGASK([AEEA-AEEA-γGlu-C18 diacid])LSTAQTQRLSAELHRLATLPRTETGSGSP-NH2 [Compound 54]	11.52
H[Aib]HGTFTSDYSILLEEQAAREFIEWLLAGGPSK([AEEA-AEEA-γGlu-C16 diacid])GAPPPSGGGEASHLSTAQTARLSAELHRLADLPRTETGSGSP-NH2 [Compound 61]	11.53
